- TARGET_SYSTEM: T1, Ravn strain cleaved MARV GP ectodomain (Marburg virus, Ravn strain, UniProt Q1PDC7 19-648)
- T1 chain: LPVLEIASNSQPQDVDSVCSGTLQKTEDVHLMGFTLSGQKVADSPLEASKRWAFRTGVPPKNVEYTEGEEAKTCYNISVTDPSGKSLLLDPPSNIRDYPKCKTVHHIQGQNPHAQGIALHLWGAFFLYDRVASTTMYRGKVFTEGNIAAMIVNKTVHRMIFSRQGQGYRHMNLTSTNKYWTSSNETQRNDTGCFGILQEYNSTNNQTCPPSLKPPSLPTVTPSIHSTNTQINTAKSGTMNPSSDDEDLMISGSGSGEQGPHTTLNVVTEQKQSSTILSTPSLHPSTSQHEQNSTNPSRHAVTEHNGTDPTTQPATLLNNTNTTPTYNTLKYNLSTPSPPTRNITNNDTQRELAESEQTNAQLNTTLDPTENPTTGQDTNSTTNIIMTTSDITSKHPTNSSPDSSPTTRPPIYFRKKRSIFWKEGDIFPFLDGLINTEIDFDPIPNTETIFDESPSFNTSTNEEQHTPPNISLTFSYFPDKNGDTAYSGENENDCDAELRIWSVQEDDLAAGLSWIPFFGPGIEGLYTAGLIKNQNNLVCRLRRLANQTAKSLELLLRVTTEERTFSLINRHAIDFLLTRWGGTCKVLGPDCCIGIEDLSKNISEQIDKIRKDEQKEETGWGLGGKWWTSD
- PROCEDURE_TEXT: ELISA
// values below are reported EC50
The figure you give is taken to be in µg/mL; do not add the unit.

Some binders with known EC50 results, for comparison:
{"BINDER": "MR111 human monoclonal antibody (antibody, V domains shown) V domain 1: QVQLQESGPGLVKPSETLSLTCTVSGDSINNYYWSWIRQPPGKGLEWIGYIYYSNTNYNPSLKSRVTISVDTSKNQFSLRLSSVTAADTAVYYCARSPLFWFGEFFSSPDHFDFWGQGTL V domain 2: QSALTQPASVSGSPGQSITISCTGTSSDVGSYDLVSWYQQHPGKAPKLMLYEGTKRPSGVSNRFSGSKSGNTASLTISGLQAEDEADYYCCSYAGGSTLVFGGGTQVTVL", "QUANTITY": "EC50", "REPORTED_MEASUREMENT": 1.5}
{"BINDER": "MR65 (antibody, V domains shown) VH: EVQLLESGGGLVQPGGSLRLSCAASGFTFSSYAMSWVRQAPGQGLEWVSGISATGGNTYYPDSVKGRFTISRDNSKNTLYLQMNSLRAEDTAVYYCARPLQFLTWFDPWGQGTLVTVSS VL: EIVLTQSPATLSLSPGERATLSCRASQSVNNFLAWYQQKPGQPPRLLIYDATNRATGIPARFSGSGSGTDFTLTISSLEPEDFAVYHCQHRSNWPSITFGQGTRLEIK", "QUANTITY": "EC50", "REPORTED_MEASUREMENT": 5}
{"BINDER": "MR191 human monoclonal antibody (antibody, V domains shown) VH: QLQLQESGPGLVKPSETLSLSCTVSGVSISDNSYYWGWIRQPPGKGLEWIGTISYSGNTYYNPSLKSRVSISGDTSKHQLSLKVSSVTAADTAVYYCARQRIVSGFVEWLSKFDYWGQGTLVTVSS VL: QSVLTQPPSVSGAPGQRVTISCTGSSSNIGAGFDVHWYQQLPGTAPKLLIYDNNNRPSGVPDRFSGSKSGTSASLAITGLQAEDEADYYCQSYDTSLSGPVVFGGGTKLTVL", "QUANTITY": "EC50", "REPORTED_MEASUREMENT": 1.4}
{"BINDER": "MR208 (antibody, V domains shown) VH: QVQLQESGPGLVKPSETLSLTCSVSGDSVSSGDYYWSWLRQPPGKGLEWIGYIYYSGATNYNPSLKSRVTISLDTSKNQFSLKLTSVTAADTAVYYCARERAGFLEWLFFEDWGQGT VL: DIQMTQSPSSLSASVGDRVTIFCRASQSIGTYLSWYQQKPGKAPKVLIYATSNLQSGVPSRFSGSGSGTEFTLTISSLQPEDFATYYCQQSRTFGQGTKVDMK", "QUANTITY": "EC50", "REPORTED_MEASUREMENT": 2.8}

# EC50 of MR232 (antibody, V domains shown) VH: QLQLQESGPGLVKPSETLSLTCAVSGGSISSSGYCWGWIRQPPGKGLEWIASICSSGTTYFNSSLKSRVSISIDTSRPQFLLNLRSLTAADTAVYYCARQRMELHFLEWLFPFDSWGQGTLVTVSS VL: DIVMTQSPATLSVSPGERATLSCRASQSVSSNLAWYQQKPGQAPRLLISGASTRATGIPARFSGSGSGTEFTLTISSLQSEDFAVYYCQQYINWPCSFGQGTKVDIK = 0.5
